B1: library; numbered along this chain (parent)
chain: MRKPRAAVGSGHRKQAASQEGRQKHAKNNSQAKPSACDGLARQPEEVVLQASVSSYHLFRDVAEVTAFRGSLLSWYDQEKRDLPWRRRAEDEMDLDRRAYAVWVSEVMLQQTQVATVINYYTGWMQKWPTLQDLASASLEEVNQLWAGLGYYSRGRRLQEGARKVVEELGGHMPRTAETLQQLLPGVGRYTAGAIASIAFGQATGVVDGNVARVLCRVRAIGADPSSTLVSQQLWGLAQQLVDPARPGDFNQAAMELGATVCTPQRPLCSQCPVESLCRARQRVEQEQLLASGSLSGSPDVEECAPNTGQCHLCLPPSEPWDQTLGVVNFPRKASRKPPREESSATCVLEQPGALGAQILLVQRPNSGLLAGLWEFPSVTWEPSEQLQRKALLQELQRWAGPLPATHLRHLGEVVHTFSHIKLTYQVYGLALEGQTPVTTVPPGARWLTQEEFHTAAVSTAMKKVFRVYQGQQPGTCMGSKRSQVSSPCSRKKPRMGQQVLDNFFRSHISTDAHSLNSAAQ

Variants of: B1
Test: 8OG:A repair function score (normalized; synonymous = 0, nonsense = -1) (normalized log-likelihood score); higher = more repair activity (WT-like);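 note: cells sorted at 72 h after reporter transfection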
Details: with 8OG:A DNA repair reporter (GFP) in HEK-293 MUTYH KO cells
attribute-measured: 8OG:A repair function score
Format: numeric value only, no unit, no commentary.

A520M    0.0283
A101T    -0.047
R409K    -0.145

Record request: 8OG:A repair function score value, item P34A
-0.039

Record request: 8OG:A repair function score value, item C311V
-0.634

Record request: 8OG:A repair function score value, item S518E
0.0194

Record request: 8OG:A repair function score value, item T191E
-0.898

Record request: 8OG:A repair function score value, item Q202S
-0.0817
